Origin of the recorded values: BindingDB's records for doi:10.7270/Q2TX3CTT

// values below are reported pEC50
Biological target: Glycogen synthase kinase-3 beta (Homo sapiens, UniProt P49841)
Sequence (P49841 whole entry): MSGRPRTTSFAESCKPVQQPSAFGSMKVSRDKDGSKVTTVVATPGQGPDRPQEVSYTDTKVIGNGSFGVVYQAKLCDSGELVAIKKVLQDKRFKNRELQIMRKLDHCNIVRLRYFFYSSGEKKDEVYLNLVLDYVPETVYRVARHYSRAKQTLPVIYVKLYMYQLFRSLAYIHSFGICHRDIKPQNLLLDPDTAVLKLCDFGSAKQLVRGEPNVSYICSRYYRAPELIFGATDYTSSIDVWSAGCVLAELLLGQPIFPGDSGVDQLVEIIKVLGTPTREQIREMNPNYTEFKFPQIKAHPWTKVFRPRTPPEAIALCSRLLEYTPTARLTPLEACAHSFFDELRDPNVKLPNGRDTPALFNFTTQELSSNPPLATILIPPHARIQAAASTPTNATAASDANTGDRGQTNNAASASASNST
Assay: concentration-response blocking of human GSK3B – biochemical, luminescence, cell-free homogeneous, retest, dose response (AID 434954)
pEC50: −log10 of the molar value.

Example entries begin here.
Query: Fill blank: measured pEC50 of the compound Cn1c(=O)[nH]c(=O)c2c1nc1n2CCCS1 is ____.
Reply: < 3.52

Query: Would you kindly repeat that for O=C(O)c1ccc2c3n(nc2c1)-c1ccc(Cl)cc1CO3 ?
Reply: 4.26

Query: Try the compound CCCCCCSc1ccc([C@H]2N[C@@](CC(C)C)(C(=O)OC)[C@H]3C(=O)N(C)C(=O)[C@@H]23)cc1
Reply: < 3.52

Others:
Query: Report pEC50 for Nc1nonc1-n1nnc(C(=O)NN=Cc2ccccc2Br)c1CN1CCCC1 please.
Reply: 5.80

Query: Can you handle CCOC(=O)c1c(C)[nH]c(C)c1C(=O)COC(=O)CNC(=O)c1ccc(OCC)cc1 next?
Reply: < 3.52

###

Reported EC50 values for a set of compounds
Target: Glycogen synthase kinase-3 beta (Homo sapiens, UniProt P49841)
Assay: concentration-response blocking of human GSK3B – biochemical, luminescence, cell-free homogeneous, retest, dose response (AID 434954)

Query: Reported EC50, compound Nc1nonc1-n1nnc(C(=O)NN=Cc2ccccc2F)c1CN1CCOCC1 : ____
Reply: 92.1 µM

Others:
Query: Which measured EC50 value corresponds to Cc1cccc(Nc2nc(N)c([N+](=O)[O-])c(NCCO)n2)c1 ?
Reply: 5.91 µM

Query: Would you mind doing CC(=O)N1CCc2c(sc(NC(=O)CCS(=O)(=O)c3ccc(C)cc3)c2C(N)=O)C1 as well?
Reply: 26.2 µM

Query: Quick one: Cc1c(NC(=O)C(C)n2cc([N+](=O)[O-])cn2)c(=O)n(-c2ccccc2)n1C (stereo not given)
Reply: > 300 µM

Query: // repeat for CCOc1ccccc1N1CCN(S(=O)(=O)c2cc(C)ccc2OC)CC1 and report
Reply: > 300 µM

Query: Then O=NCc1ccc(SCc2ccccc2Cl)c([N+](=O)[O-])c1 ?
Reply: > 300 µM

Query: Now the same for Cc1ccc(NC(=O)CSCc2ccc(F)cc2)cc1
Reply: > 300 µM

Query: Same question, Cc1nn(CC(=O)N2CCN(c3ccccn3)CC2)c(=O)c2cc3sccc3n12 this time
Reply: > 300 µM

Query: Follow-up item: CCN1C(=O)/C(=N\NC(=O)C(O)c2ccccc2)c2ccccc21 (stereo not given)
Reply: 32.4 µM

Query: // repeat for CC1(C)CC(=O)C2C(=NC3=C(C(=O)c4ccccc43)C2c2ccc(O)cc2)C1 (stereo not given) and report
Reply: > 300 µM

###

Target: Glycogen synthase kinase-3 beta (Homo sapiens, UniProt P49841)
Assay: concentration-response blocking of human GSK3B – biochemical, luminescence, cell-free homogeneous, retest, dose response (AID 434954)
EC50 overview

Query: What value of EC50 has been recorded for this entry: COc1ccc(-c2nn(-c3ccccc3)cc2CN=O)cc1OC
Reply: 3.99 µM

Query: Next record, please: Cc1ccc2nc3c(cc2c1)c(NC(=O)C(C)(C)C)nn3CC(C)C
Reply: > 300 µM

Query: Queued: O=C(NCCCn1ccnc1)c1ccco1
Reply: > 300 µM

Query: Now consider O=NCc1ccc(SCc2ccccc2)c([N+](=O)[O-])c1 and answer again.
Reply: > 300 µM

Query: Follow-up item: Cc1cccc(COc2ccc(C=NNC(=O)c3nnn(-c4nonc4N)c3CN3CCCCC3)cc2)c1
Reply: > 300 µM
